# maps each entry to its pEC50
measured on: h FPR2 (Homo sapiens)
Sequence (P25090 1-351): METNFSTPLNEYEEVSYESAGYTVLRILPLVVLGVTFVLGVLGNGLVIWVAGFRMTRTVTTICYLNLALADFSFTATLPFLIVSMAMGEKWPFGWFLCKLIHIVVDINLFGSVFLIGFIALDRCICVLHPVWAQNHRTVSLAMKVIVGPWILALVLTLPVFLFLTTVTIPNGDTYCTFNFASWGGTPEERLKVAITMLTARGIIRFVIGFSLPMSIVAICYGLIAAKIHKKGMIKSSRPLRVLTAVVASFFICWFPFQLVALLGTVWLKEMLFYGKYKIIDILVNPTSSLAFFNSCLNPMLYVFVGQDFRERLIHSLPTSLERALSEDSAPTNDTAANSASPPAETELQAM
experiment: Agonistic activity in hFPR2-Aq-CHO cells (FLIPR Calcium 5 fluorescence assay)
stated conditions: 11 point half log dilution, final assay concentration from 10µM
To interpret pEC50, take it as minus log10 of a concentration measured in moles per litre.

Here are 3 compounds together with their reported answers.
COc1ccc([C@@H]2CN(c3ccc(F)cc3)CC[C@H]2NC(=O)Nc2ccc(Cl)cc2)cn1 (relative stereo) = 7.96
COCCCN1CC[C@@H](NC(=O)Nc2ccccc2)[C@H](c2ccc(OC)cn2)C1 (relative stereo) = 7.51
COc1ccc([C@@H]2CN(CC3CCNCC3)CC[C@H]2NC(=O)Nc2ccc(Cl)cc2)nc1 (single isomer, unassigned) [Ex-124] = 10.52

Q: Give the value of pEC50 reported for the following: O=C(Nc1ccc(Cl)cc1)N[C@@H]1CCN(Cc2ccc(C(F)(F)F)nc2)C[C@H]1c1ccc(Cl)s1 (relative stereo)
A: 8.70

Q: Give the value of pEC50 reported for the following: COc1ccc([C@@H]2CN(C3COC3)CC[C@H]2NC(=O)Nc2ccc(Cl)cc2)nc1 (relative stereo)
A: 8.15

Q: Give the value of pEC50 reported for the following: COc1ccc([C@@H]2CN(C(=O)c3cnccc3C)CC[C@H]2NC(=O)Nc2ccc(Cl)cc2)nc1 (single isomer, unassigned) [Ex-52]
A: 9.30

Q: Give the value of pEC50 reported for the following: COc1ccc([C@@H]2CN(CC(C)(C)O)CC[C@H]2NC(=O)Nc2ccc(Cl)cc2)nc1 (relative stereo) [Ex-120]
A: 9.15
